B1: LINE1-full (parent)
chain: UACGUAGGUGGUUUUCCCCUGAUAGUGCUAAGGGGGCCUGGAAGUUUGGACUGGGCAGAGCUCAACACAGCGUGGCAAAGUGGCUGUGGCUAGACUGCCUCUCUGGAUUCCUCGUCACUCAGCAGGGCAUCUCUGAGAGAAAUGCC

variants of: B1; test: self-cleavage, relative activity (ratio to wild type); higher = more cleavage; in vitro, sequencing; the parent is a self-cleaving ribozyme
measurementLabel: self-cleavage
One number for each entry.

// worked examples, self-cleavage included
INSERT INTO measurements (mutationnotation, resultvalue) VALUES
  ('C17U U62C', 0.04),
  ('C37G A142G', 1.25),
  ('C56U U73A', 0.08),
  ('G21A A78G', 1.31),
  ('G10A U15C', 1.2),
  ('U73C U132A', 1.25),
  ('G125A U130A', 1.61),
  ('C98G U102C', 0.14);

Would you mind listing self-cleavage for each of the following variants?
1. A124C A136G
2. A77U U96C
3. U96G U112C
4. U104A A129G
5. C68U U85A
6. G32U A117G
7. A42U U109C
8. G11U A69G

Result:
1: 1.15; 2: 0.1; 3: 0.05; 4: 1.27; 5: 0.03; 6: 1.13; 7: 0.71; 8: 0.44

Would you mind listing self-cleavage for each of the following variants?
1. A50G A64G
2. A79G U104G
3. G36A U73A
4. G34U C116U

Result:
0.42
1.7
1.84
1.46

Would you mind listing self-cleavage for each of the following variants?
1. A77G C103A
2. U13A U134A
3. U1A G127C
4. A67G C68U
5. U102C U119C
6. A64U A142U
7. G82A U85C

Result:
1: 2.24; 2: 0.51; 3: 1.51; 4: 0.04; 5: 1.69; 6: 0.46; 7: 0.23
